The origin of these recorded values is patent US20050009840A1.

# target_of_assay: HGFR (Homo sapiens, UniProt P08581)
# Construct: purchased Upstate 14-526
# Sequence (P08581 974-1390 limits assumed): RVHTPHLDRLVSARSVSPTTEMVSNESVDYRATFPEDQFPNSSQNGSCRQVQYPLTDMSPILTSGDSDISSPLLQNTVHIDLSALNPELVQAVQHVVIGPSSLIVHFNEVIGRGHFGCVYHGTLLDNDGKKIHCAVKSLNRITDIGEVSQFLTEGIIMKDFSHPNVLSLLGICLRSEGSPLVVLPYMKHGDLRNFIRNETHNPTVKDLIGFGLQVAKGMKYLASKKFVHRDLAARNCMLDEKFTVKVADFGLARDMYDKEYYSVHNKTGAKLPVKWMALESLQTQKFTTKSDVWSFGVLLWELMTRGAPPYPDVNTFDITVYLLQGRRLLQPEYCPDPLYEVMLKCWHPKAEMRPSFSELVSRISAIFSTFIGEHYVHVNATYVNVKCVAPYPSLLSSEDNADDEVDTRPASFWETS
# test_method_notes: HGFR continuous-coupled spectrophotometric assay
# Format: biochemical
# measurement_conditions: at 50 nM; Table 5, library procedure 40; read-out: % inhibition (percent c-MET inhibition)
Threshold rule: inhibition at 0.05 µM greater than or equal to 80% is T; below that, F.

Example entries and their recorded answers appear below.
compound: CC(Oc1cc(-c2ccc(C(=O)NCc3ccc(CN(C)C)cc3)cc2)cnc1N)c1c(Cl)ccc(F)c1Cl (centres unmarked)
label: F
//
compound: C[C@H](Oc1cc(-c2ccc(C(=O)NC3C[C@@H]3c3ccccc3)cc2)cnc1N)c1c(Cl)ccc(F)c1Cl (some centres unmarked)
label: F
//
compound: CC(Oc1cc(-c2ccc(C(=O)NCCCN(C)C3CCCCC3)cc2)cnc1N)c1c(Cl)ccc(F)c1Cl (centres unmarked)
label: F
//
compound: CC(Oc1cc(-c2ccc(C(=O)N(C)C3CCN(C)C3)cc2)cnc1N)c1c(Cl)ccc(F)c1Cl (centres unmarked)
label: T
//
compound: CC(Oc1cc(-c2ccc(C(=O)NC3(CO)CCCC3)cc2)cnc1N)c1c(Cl)ccc(F)c1Cl (centres unmarked)
label: F
//
compound: CCN(CCN(C)C)C(=O)c1ccc(-c2cnc(N)c(OC(C)c3c(Cl)ccc(F)c3Cl)c2)cc1 (centres unmarked)
label: T

Kindly determine if inhibition at 0.05 µM recorded for COc1cc(CNC(=O)c2ccc(-c3cnc(N)c(OC(C)c4c(Cl)ccc(F)c4Cl)c3)cc2)ccc1O (centres unmarked) is above or exactly 80%.
F

State whether the measured inhibition at 0.05 µM reaches 80%, counting equality as reaching it, for CC(Oc1cc(-c2ccc(C(=O)NC(CO)c3cccnc3)cc2)cnc1N)c1c(Cl)ccc(F)c1Cl (centres unmarked)
F
